Molecular target: T1, human MSLN-FL-his protein (human, UniProt Q13421 296-580)
T1 construct: made in HEK293E cells, purified on nickel column; also called hMSLN-FL-his; human MSLN full-length protein; not shown: His tag
T1 sequence (Q13421 other isoform, or with tags, fused parts or gaps): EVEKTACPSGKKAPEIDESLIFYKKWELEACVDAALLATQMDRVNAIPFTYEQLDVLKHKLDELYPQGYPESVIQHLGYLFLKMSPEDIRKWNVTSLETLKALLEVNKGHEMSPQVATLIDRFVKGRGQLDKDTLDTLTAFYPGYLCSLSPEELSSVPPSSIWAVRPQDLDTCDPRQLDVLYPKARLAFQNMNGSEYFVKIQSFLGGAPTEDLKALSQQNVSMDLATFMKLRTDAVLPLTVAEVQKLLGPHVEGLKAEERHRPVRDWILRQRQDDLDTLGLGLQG
Assay: competitive ELISA; row F8-12.13; note: test concentration or dose not given here
QUANTITY: competition rate

# count of solved cases: 2
# BINDER, competition rate
measured = [
    ("S009-F8-18.9 (antibody, human IgG1, kappa, V domains shown, human-murine chimeric antibody, human IgG1/kappa constant regions) VH: EFQLQQSGPELVKPGASVKISCKASGYSFTDYNMNWVKQSNGKSLEWIGIINPNYGTTSYNQKFKGRATLTVDQSSSTAYVQLNSLTSEDSAVYYCARGGYDNEAMDYWGQGTSVTVSS VL: QIVLTQSPAIMSASPGEKVTMTCSASSSVSYMHWYQQKSGTSPKRWIYDTSKLASGVPARFSGSGSGTSYSLTISSMEAEDAATYYCQQWSSNPPTFGAGTKLELKR", "97.2%"),
    ("S009-F8-19.21 (antibody, human IgG1, kappa, V domains shown, human-murine chimeric antibody, human IgG1/kappa constant regions) VH: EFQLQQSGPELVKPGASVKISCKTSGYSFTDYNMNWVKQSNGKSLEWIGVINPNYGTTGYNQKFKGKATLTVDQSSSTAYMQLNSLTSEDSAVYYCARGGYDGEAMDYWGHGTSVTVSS VL: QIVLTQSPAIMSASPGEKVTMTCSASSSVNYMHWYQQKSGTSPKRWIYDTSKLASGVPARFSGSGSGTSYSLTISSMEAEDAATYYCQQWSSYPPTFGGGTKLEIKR", "97.3%"),
]

Now consider a different binder.
Task: competition rate lookup needed for S009-F8-4.5 (antibody, human IgG1, kappa, V domains shown, human-murine chimeric antibody, human IgG1/kappa constant regions) VH: QVQLQQPGAELVKPGASVKLSCKASGYTFTIYWMHWVKQRPGQGLEWIGMIHPNSGNTNYNEKFKSKATLTVDKSSSTAYMQLSSLTSEDSAVYYCSLIHWYFDVWGTGTTVTVSS VL: QIVLTQSPAIMSASPGEKVTMTCSASSSVSYMYWYQQKPGSSPRLLIYDTSNLASGVPVRFSGSGSGTSYSLTISRMEAEDAATYYCQQWSSYPLTFGAGTKLELKR , thanks.
Result: 98.9%
